Reported protein stability index values for a set of variants
B1: CLINT1 (parent)
chain: VVTSAREHIYDLRSLENYHFVDEH

variants of: B1; assay: protein stability index of a GFP-peptide fusion (GPS, HEK-293T) (PSI 1-6); higher = more stable; conditions: c terminus: a fixed tail appended;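 note: lentivirally expressed fusions sorted by FACS into six bins by GFP to DsRed ratio, PSI derived from sequencing read proportions per bin multiplied by bin number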
measured_attribute: protein stability index

• S14N = 3.07
• H24K = 3.21
• S4V = 2.47
• E23A = 2.64
• T3S = 2.89
• V2F = 2.56
• H19E = 3.8
• Y10P = 4.21
• R6Q = 3.4
• Y10L = 2.71
• T3K = 3.11
• V21A = 3.44
• V2I = 2.3
• V1D = 4.06
• L15M = 2.62
• D22C = 1.98
• H24Y = 2.32
• S14P = 2.24
• R13S = 3.18
• R6I = 1.84
• R13E = 3.73
• D11G = 2.61
